B1: FBF1 (parent)
chain: YQRPQDSEDMWGDEDFTFGAYQPT

Variants of: B1
Experiment: protein stability index of a GFP-peptide fusion (GPS, HEK-293T) (PSI 1-6); higher = more stable;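 note: lentivirally expressed fusions sorted by FACS into six bins by GFP to DsRed ratio, PSI derived from sequencing read proportions per bin multiplied by bin number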
Details: c terminus: a fixed tail appended
Parameter: protein stability index

These recorded examples may help you get a feel for the data.
M10R | 3.66
S7E | 3.29

According to the records, this variant G12N displays protein stability index of 3.17

According to the records, this variant D6P displays protein stability index of 2.3
